Quick reference for Emax at 10 µM among some compounds
- system_under_test: human PPARγ (Homo sapiens)
- Construct: DNA constructs encoding human LBD domains of human PPARα, PPARγ, of LXRα (pGAL4-PPARα, pGAL4-PPARγ, pGAL4-LXRα); expressed in transfected cells; host or cells: HepG2
- Sequence (P37231 238-503 limits assumed): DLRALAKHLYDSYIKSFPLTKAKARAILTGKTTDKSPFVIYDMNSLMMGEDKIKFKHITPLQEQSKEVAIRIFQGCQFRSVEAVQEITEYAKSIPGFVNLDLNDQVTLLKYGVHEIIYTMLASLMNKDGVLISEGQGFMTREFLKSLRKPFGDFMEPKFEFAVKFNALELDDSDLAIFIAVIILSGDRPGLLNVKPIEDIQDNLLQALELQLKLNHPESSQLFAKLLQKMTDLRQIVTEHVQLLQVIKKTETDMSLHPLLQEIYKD
- experiment_summary: PPARγ luciferase reporter gene assay (pGAL4-PPARγ / pGL5-UAS 9x) in HepG2 cells
- Assay type: cell-based
- measurement_conditions: HepG2, 24 h
Express your answer in %, writing the number without its unit.

Request: What Emax at 10 µM value was documented for this compound, "C[C@@H](Oc1ccc(Oc2cnc3ccc(Br)cc3n2)cc1)C(=O)O" ?
Response: 2

***
Request: Form field: reported Emax at 10 µM of "CCc1ccc2ccc(Oc3ccc(O[C@H](C)C(=O)O)cc3)nc2c1"
Response: 4

Request: Entry "C[C@@H](Oc1ccc(Oc2ccc3c(C(F)(F)F)cccc3n2)cc1)C(=O)O" has what Emax at 10 µM?
Response: -1

Request: GET /values?readout=Emax at 10 µM&item= "CC(=O)Nc1ccc2ncc(Oc3ccc(OCC(=O)O)cc3)nc2c1"
Response: 1

Request: Data request, read-out Emax at 10 µM, for "Cc1ccc2ncc(Oc3ccc(O[C@H](C)C(=O)O)cc3)nc2c1"
Response: 2

Request: Emax at 10 µM lookup needed for "COc1ccc2ncc(Oc3ccc(O[C@H](C)C(=O)O)cc3)nc2c1" , thanks.
Response: 0

Request: What Emax at 10 µM value was documented for this compound, "C[C@@H](Oc1ccc(Oc2ccc3cc(Cl)ccc3n2)cc1)C(=O)O" ?
Response: 23

Request: Item "C[C@@H](Oc1ccc(Oc2cnc3ccc(Cl)cc3n2)cc1)C(=O)O" has what recorded Emax at 10 µM?
Response: 2

Request: Item "C[C@@H](Oc1ccc(Oc2ccc3c(Cl)cccc3n2)cc1)C(=O)O" has what recorded Emax at 10 µM?
Response: 1

Request: Fill in: Emax at 10 µM of "C[C@@H](Oc1ccc(Oc2ccc3c(Cl)cc(Cl)cc3n2)cc1)C(=O)O" is ___
Response: 1

Request: Need Emax at 10 µM of "C[C@@H](Oc1ccc(Oc2ccc3ccc(Cl)cc3n2)cc1)C(=O)O" , thanks.
Response: 4

Request: Would you mind telling me what Emax at 10 µM value was observed for "C[C@@H](Oc1ccc(Oc2ccc3c(Br)cccc3n2)cc1)C(=O)O" ?
Response: 1

Request: Item "C[C@@H](Oc1ccc(Oc2ccc3ccc(F)cc3n2)cc1)C(=O)O" has what recorded Emax at 10 µM?
Response: 7
